# STUDY_TARGET: UniProt:P29274
# PROCEDURE_SUMMARY: A2a competition binding assay, Scintillation Proximity technology
# CONDITION_DETAILS: membranes from HEK293 cells expressing human A2a receptor; 0.5 nM tritiated ligand
Note to self: EC50 under 4 nM means yes (1), ties and anything higher get no (0).

Task: Determine if Cc1cccnc1CNC(=O)c1nc(C)c(-c2ncco2)nc1N [Ex-5] shows EC50 strictly lower than 4 nM.
Output: no (0)

Task: Another molecule to check: "Cc1cccc(CNC(=O)c2nc(C)c(-c3ncco3)nc2N)n1"
Output: yes (1)

Task: Next up: Cc1nc(C(=O)N[C@H]2CCc3cccnc32)c(N)nc1-c1ncco1 (single isomer, unassigned)
Output: yes (1)

Task: Now this one: Cc1nc(C(=O)NCc2ncccc2C2CC2)c(N)nc1-c1ncco1 [Ex-4]
Output: no (0)

Task: Same lookup for "Cc1nc(C(=O)NCc2cccc3cccnc23)c(N)nc1-c1ncco1" , please.
Output: yes (1)

Task: And what about the molecule Cc1nc(C(=O)NCc2ncccc2C2CC2)c(N)nc1-c1ncco1 [Ex-6] ?
Output: no (0)

Task: // next record Cc1cccnc1CNC(=O)c1nc(C)c(-c2ncco2)nc1N [Ex-3]
Output: yes (1)

* * *

This document collects pKi values reported for human A2a receptor (Homo sapiens, UniProt P29274).
Just the number, please; pKi means minus log10 of the concentration in mol/L.

Task: // pKi lookup, key: "CCn1cc2c(CNC(=O)c3nc(C)c(-c4ncco4)nc3N)cccc2n1"
Output: 7.82

Task: Now this one: "Cc1nc(C(=O)NCc2nccc(F)c2C)c(N)nc1-c1ncco1"
Output: 9.48

Task: Now consider Cc1nc(C(=O)NC2CCCC2(F)F)c(N)nc1-c1ncco1 (single isomer, unassigned) [Ex-191B] .
Output: 8.59

Task: Another compound to check: "Cc1nc(C(=O)N[C@H]2CCC[C@@H]2O)c(N)nc1-c1ncco1"
Output: 8.13

Task: For Cc1nc(C(=O)N(C)C(C)c2ccccn2)c(N)nc1-c1ncco1 (centres unmarked) then?
Output: 6.60

Task: Further, for "Cc1nc(C(=O)NCc2ccncn2)c(N)nc1-c1ncco1" ?
Output: 7.30

Task: Here is the next compound: "Cc1cn(C)c(CNC(=O)c2nc(C)c(-c3ncco3)nc2N)n1"
Output: 8.24

Task: And the next one, "Nc1nc(-n2nccn2)c(Cl)nc1C(=O)N[C@@H](c1ccccc1)C(F)(F)F" ?
Output: 6.91

Task: Try this compound next: "Nc1nc(-n2nccn2)c(Cl)nc1C(=O)N[C@H](CO)c1ccccn1"
Output: 7.27

Task: Try this compound next: "Cc1nc(C(=O)NCc2cccnc2Cl)c(N)nc1-c1ncco1"
Output: 8.38

Task: Next up: "Nc1nc(-n2cccn2)c(Cl)nc1C(=O)NCc1ccccc1C(F)(F)F"
Output: 8.07

Task: # iterate: "Cc1cc(C)nc(CNC(=O)c2nc(C)c(-c3ncco3)nc2N)n1"
Output: 8.55

Task: Also, "CCn1ncnc1CNC(=O)c1nc(C)c(-c2ncco2)nc1N" please.
Output: 9.22

Task: Would you mind doing "COc1ccc(CNC(=O)c2nc(C)c(-c3ncco3)nc2N)cc1" as well?
Output: 7.80

Task: How about "Cc1cnn(-c2nc(N)c(C(=O)NCc3ncccc3C)nc2Cl)n1" ?
Output: 8.22

Task: Now try "Cc1nc(C(=O)NCc2ccn(C)n2)c(N)nc1-c1ncco1" .
Output: 8.77

Task: Now try "Cc1ccnnc1CNC(=O)c1nc(C)c(-c2ncco2)nc1N" .
Output: 9.00

Task: Input "Cc1cc(F)cnc1CNC(=O)c1nc(C)c(-c2ncco2)nc1N"
Output: 8.94

Task: And the next one, "Cc1nc(C(=O)NCc2c(Cl)cccc2Cl)c(N)nc1-c1cnco1" ?
Output: 9.70

Task: Subsequent entry: "C#C[C@H]1CCC[C@@H]1NC(=O)c1nc(C)c(-c2ncco2)nc1N"
Output: 8.53
